- Test system: hyperphosphorylated SH SY5Y cells
- ASSAY EXPLANATION: Saturation binding of Cy5-labeled aptamer, apparent Kd, SH-SY5Y cells
- Design: species or system human
- TEST CONTEXT: read-out: apparent equilibrium dissociation constant (Kdapp)

{"columns": ["SUBSTANCE", "VALUE UNITS", "Kd"],
 "data": [
  ["Tau_3: DNA thioaptamer CCCCCCACGGTCTCCGCTCCACAAGTCCAC", "nM", 0.194],
  ["Tau_1: DNA thioaptamer CCCCCCACGGTCTCCGCTCCACAAGTTCAC (DNA, backbone and methylation of C not given here; further chemistry not fully specified)", "nM", 0.167]
]}

----------
- System: ReN-VM cells
- ASSAY EXPLANATION: Saturation binding of Cy5-labeled aptamer, apparent Kd, ReN-VM cells
- TEST CONTEXT: read-out: apparent equilibrium dissociation constant (Kdapp)
pKd: −log10 of the molar value.

{"columns": ["SUBSTANCE", "pKd"],
 "data": [
  ["Tau_3: DNA thioaptamer CCCCCCACGGTCTCCGCTCCACAAGTCCAC", 6.63],
  ["Tau_1: DNA thioaptamer CCCCCCACGGTCTCCGCTCCACAAGTTCAC (DNA, backbone and methylation of C not given here; further chemistry not fully specified)", 6.50]
]}

Data provenance: patent US12298318B2
